# testSystem: Sphingosine 1-phosphate receptor 1 (Homo sapiens, UniProt P21453)
# Sequence (P21453 whole entry): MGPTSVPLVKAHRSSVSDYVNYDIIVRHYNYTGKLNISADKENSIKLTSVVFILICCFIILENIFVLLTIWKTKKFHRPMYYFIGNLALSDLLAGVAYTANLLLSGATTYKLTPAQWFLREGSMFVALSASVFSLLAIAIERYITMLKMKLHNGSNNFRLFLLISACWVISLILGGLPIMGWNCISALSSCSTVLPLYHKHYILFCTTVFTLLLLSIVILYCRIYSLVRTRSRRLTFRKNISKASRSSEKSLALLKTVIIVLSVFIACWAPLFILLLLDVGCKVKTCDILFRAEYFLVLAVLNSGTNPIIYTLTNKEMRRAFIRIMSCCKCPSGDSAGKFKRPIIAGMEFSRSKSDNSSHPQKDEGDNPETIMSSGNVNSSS
# experimentSummary: Agonist activity against S1P1 receptor by cell based FRET assay
# Format: functional
endpoint: EC50 (nM)

[[record]]
structuresmilesstring = "CCc1c(CCCC(=O)O)cccc1-c1ccc(-c2ccc(OC(C)C)c(C#N)c2)nn1"
sign = "="
valueobserved = 631

[[record]]
structuresmilesstring = "CCc1c(CCCC(=O)O)cccc1-c1ccc(-c2ccc(OC(C)C)c(C#N)c2)nc1"
sign = "="
valueobserved = 31.6

[[record]]
structuresmilesstring = "CCc1c(CCCC(=O)O)cncc1-c1nsc(-c2ccc(OC(C)C)c(C(F)(F)F)c2)n1"
sign = "="
valueobserved = 25.1

[[record]]
structuresmilesstring = "CCc1c(CCCC(=O)O)cccc1-c1cc(-c2ccc(OC(C)C)c(C#N)c2)no1"
sign = "="
valueobserved = 5.01

[[record]]
structuresmilesstring = "CCc1c(-c2nsc(-c3ccc(CC(C)C)c(C#N)c3)n2)ccnc1CCCC(=O)O"
sign = "="
valueobserved = 158

[[record]]
structuresmilesstring = "CCc1c(CCCC(=O)O)cccc1-c1ccnc(-c2ccc(OC(C)C)c(C#N)c2)n1"
sign = ">"
valueobserved = 3160

[[record]]
structuresmilesstring = "CCc1c(CCCC(=O)O)cccc1-c1cnn(-c2ccc(OC(C)C)c(C#N)c2)c1"
sign = "="
valueobserved = 631

[[record]]
structuresmilesstring = "CCc1c(CCCC(=O)O)cccc1-c1nccc(-c2ccc(OC(C)C)c(C#N)c2)n1"
sign = ">"
valueobserved = 3160

[[record]]
structuresmilesstring = "CCc1c(CCCC(=O)O)cccc1-c1cc(-c2ccc(OC(C)C)c(C#N)c2)n[nH]1"
sign = ">"
valueobserved = 10000

[[record]]
structuresmilesstring = "CCc1c(CCCC(=O)O)cccc1-c1cnc(-c2ccc(OC(C)C)c(C#N)c2)[nH]1"
sign = ">"
valueobserved = 10000

[[record]]
structuresmilesstring = "CCc1c(CCCC(=O)O)cccc1-c1ccn(-c2ccc(OC(C)C)c(C#N)c2)n1"
sign = "="
valueobserved = 2510

[[record]]
structuresmilesstring = "CCc1c(CN(C)C(C)(C)C(=O)O)cccc1-c1nsc(-c2ccc(OC(C)C)c(C(F)(F)F)c2)n1"
sign = "="
valueobserved = 100

[[record]]
structuresmilesstring = "CCc1c(CCCC(=O)O)cccc1-c1nnc(-c2ccc(OC(C)C)c(C#N)c2)o1"
sign = "="
valueobserved = 3.16

[[record]]
structuresmilesstring = "CCc1c(CCCC(=O)O)cccc1-c1ccc(-c2ccc(OC(C)C)c(C#N)c2)s1"
sign = "="
valueobserved = 3.98

[[record]]
structuresmilesstring = "CCc1c(CCN2CCC(C(=O)O)CC2)cccc1-c1nsc(-c2ccc(CC(C)C)c(C#N)c2)n1"
sign = "="
valueobserved = 0.794

[[record]]
structuresmilesstring = "CCc1c(CCN(C)CC(=O)O)cccc1-c1nsc(-c2ccc(OC(C)C)c(C(F)(F)F)c2)n1"
sign = "="
valueobserved = 0.02

[[record]]
structuresmilesstring = "CCc1c(CCCC(=O)O)cncc1-c1nsc(-c2ccc(OC(C)C)c(Cl)c2)n1"
sign = "="
valueobserved = 251


----------
# experimentSummary: Half life in Sprague-Dawley rat at 1 mg/kg, iv and 2 mg/kg, po
# Format: ADME, organism-based
# runConditions: in vivo
Parameter: half-life. Scope: all listed entries.
endpoint: half-life (min)

[[record]]
structuresmilesstring = "CCc1c(CCN2CCC(C(=O)O)CC2)cccc1-c1nsc(-c2ccc(CC(C)C)c(C#N)c2)n1"
u = "min"
valueobserved = 372

[[record]]
structuresmilesstring = "CCc1c(CCN2CCC(C(=O)O)CC2)cccc1-c1nsc(-c2ccc(OC(C)C)c(Cl)c2)n1"
u = "min"
valueobserved = 1660

